Tested Target: AmGSTD1 (Apis mellifera)
Measurement Description: fluorescence saturation binding
Property Measured: Kd (nM)
The figure you give is taken to be in nM; do not add the unit.

Data request: // lookup Kd for O=S(=O)(O)c1cccc2cccc(Nc3ccccc3)c12 [ANS]
Data returned: 2090

----------
Tested Target: AmGSTD1 (Apis mellifera, UniProt A0A8U0Y9D4)
Sequence (A0A8U0Y9D4 1-240): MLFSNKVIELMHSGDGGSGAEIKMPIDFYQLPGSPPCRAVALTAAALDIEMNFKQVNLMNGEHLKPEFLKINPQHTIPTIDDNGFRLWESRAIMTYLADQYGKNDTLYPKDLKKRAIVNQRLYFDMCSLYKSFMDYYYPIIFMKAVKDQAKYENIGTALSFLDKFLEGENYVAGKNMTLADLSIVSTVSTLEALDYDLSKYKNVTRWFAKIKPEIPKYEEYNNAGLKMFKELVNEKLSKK
Property Measured: pIC50
Bear in mind: pIC50 is minus log10 of a mol/L concentration; give just that figure.

Worked cases, answers included:
Data request: Item under review: `C=C(CC)C(=O)c1ccc(OCC(=O)O)c(Cl)c1Cl` . Reported pIC50?
Data returned: 2.99

Data request: Lookup `O=C(O)COc1ccc(Cl)cc1Cl`
Data returned: 3.00

Data request: Entry to check: `Oc1nc(Cl)c(Cl)cc1Cl`
Data returned: 3.21

Data request: Can you check `O=[N+]([O-])c1ccc(Cl)c([N+](=O)[O-])c1` next?
Data returned: 2.91

---
Data request: Need pIC50 of `O=C(O)COc1nc(Cl)c(Cl)cc1Cl` , thanks.
Data returned: 2.73

----------
Tested Target: AmGSTD1 (Apis mellifera)
# note: boundary value 50 µM maps to no; Ki below it maps to yes

Worked set:
Data request: Determine whether this compound shows Ki lower than 50 µM (ties excluded): O=C(O)COc1ccc(Cl)cc1Cl [2,4-D]
Data returned: yes

Data request: Same for O=Cc1cccc(Oc2ccccc2)c1 [3-phenoxybenzaldehyde]
Data returned: no

Next:
Data request: # strict comparison: is reported Ki < 50 µM? input = C=C(CC)C(=O)c1ccc(OCC(=O)O)c(Cl)c1Cl [ethacrynic acid]
Data returned: yes

----------
The following compounds each carry a recorded pKi for AmGSTD1 (Apis mellifera).
// pKi: -log10(molar conc.)

Use the examples below as a reference point.
Data request: Request - read-out pKi | tested on AmGSTD1 (Apis mellifera) | compound Oc1nc(Cl)c(Cl)cc1Cl [TCP]
Data returned: 4.60

Data request: Another compound: O=[N+]([O-])c1ccc(Cl)c([N+](=O)[O-])c1 [CDNB]
Data returned: 4.30

Data request: Can you handle O=[N+]([O-])NC1=NCCN1Cc1ccc(Cl)nc1 [imidacloprid] next?
Data returned: 3.89

Data request: Query CCCCC(C#N)(Cn1cncn1)c1ccc(Cl)cc1 (centres unmarked) [myclobutanil] next
Data returned: 3.83

Here's the next entry for you.
Data request: Entry O=C(O)COc1nc(Cl)c(Cl)cc1Cl [triclopyr] , system AmGSTD1 (Apis mellifera): what pKi was measured?
Data returned: 4.12
